From: ChEMBL document CHEMBL3616440

Tested on: Plasma
measurement.protocol: Plasma concentration in Sprague-Dawley rat assessed as 6-(4-chlorophenyl)-3-(4-((3,3-difluoro-1-hydroxycyclobutyl)methoxy)-3-methoxyphenyl)pyrrolo[1,2-f][1,2,4]triazin-4(3H)-one level at 10 mg/kg, po qd at 8 hrs
Type: ADME, organism-based
condition: in vivo
measured.attribute: concentration (nM)
Kindly provide the numeric value in nM only, without the unit symbol.

Prompt line: # get_value(readout='concentration', item= COc1cc(-n2cnn3cc(-c4ccc(Cl)cc4)cc3c2=O)ccc1OCC1(OC(=O)CN)CC(F)(F)C1 )
Response line: 477

###

Test system: Brain
measurement.protocol: Drug concentration in Sprague-Dawley rat brain assessed as 6-(5-chloropyrimidin-2-yl)-3-(4-((3,3-difluoro-1-hydroxycyclobutyl)methoxy)-3-methoxyphenyl)pyrrolo[1,2-f][1,2,4]triazin-4(3H)-one level at 10 mg/kg, po qd at 8 hrs
Assay type: ADME, organism-based
condition: in vivo, read-out: Drug uptake
measured.attribute: concentration (nM)
Kindly provide the numeric value in nM only, without the unit symbol.

Prompt line: # get_value(readout='concentration', item= COc1cc(-n2cnn3cc(-c4ncc(Cl)cn4)cc3c2=O)ccc1OCC1(OC(=O)CN)CC(F)(F)C1 )
Response line: 805

###

Test system: Plasma
measurement.protocol: Plasma concentration in Sprague-Dawley rat assessed as 6-(5-chloropyrimidin-2-yl)-3-(4-(2-hydroxy-2-methylpropoxy)-3-methoxyphenyl)pyrrolo[1,2-f][1,2,4]triazin-4(3H)-one level at 5 mg/kg, po qd at 8 hrs
Format: ADME, organism-based
condition: in vivo
measured.attribute: concentration (nM)
Kindly provide the numeric value in nM only, without the unit symbol.

Prompt line: # get_value(readout='concentration', item= COc1cc(-n2cnn3cc(-c4ncc(Cl)cn4)cc3c2=O)ccc1OCC(C)(C)OC(=O)CN )
Response line: 2710

###

Test system: Brain
measurement.protocol: Drug concentration in Sprague-Dawley rat brain assessed as 6-(4-chlorophenyl)-3-(4-(2-hydroxypropoxy)-3-methoxyphenyl)pyrrolo[1,2-f][1,2,4]triazin-4(3H)-one level at 30 mg/kg, po qd after 10 days
Assay type: ADME, organism-based
condition: in vivo, 240 h, read-out: Drug uptake
measured.attribute: concentration (µM)
Kindly provide the numeric value in µM only, without the unit symbol.

Prompt line: # get_value(readout='concentration', item= COc1cc(-n2cnn3cc(-c4ccc(Cl)cc4)cc3c2=O)ccc1OCC(C)OC(=O)[C@@H](N)C(C)C (stereo partly specified) )
Response line: 20.8

###

System: Brain
measurement.protocol: Drug concentration in Sprague-Dawley rat brain assessed as 6-(4-chlorophenyl)-3-(6-(4-hydroxypiperidin-1-yl)pyridin-3-yl)pyrrolo[1,2-f][1,2,4]triazin-4(3H)-one level at 30 mg/kg, po qd at 20 hrs
Assay type: ADME, organism-based
condition: in vivo, read-out: Drug uptake
measured.attribute: concentration (µM)
Kindly provide the numeric value in µM only, without the unit symbol.

Prompt line: # get_value(readout='concentration', item= CC(C)[C@H](N)C(=O)OC1CCN(c2ccc(-n3cnn4cc(-c5ccc(Cl)cc5)cc4c3=O)cn2)CC1 )
Response line: 15.1

###

experimental.system: Melanin-concentrating hormone receptor 1 (Rattus norvegicus, UniProt P97639)
Sequence (P97639 whole entry): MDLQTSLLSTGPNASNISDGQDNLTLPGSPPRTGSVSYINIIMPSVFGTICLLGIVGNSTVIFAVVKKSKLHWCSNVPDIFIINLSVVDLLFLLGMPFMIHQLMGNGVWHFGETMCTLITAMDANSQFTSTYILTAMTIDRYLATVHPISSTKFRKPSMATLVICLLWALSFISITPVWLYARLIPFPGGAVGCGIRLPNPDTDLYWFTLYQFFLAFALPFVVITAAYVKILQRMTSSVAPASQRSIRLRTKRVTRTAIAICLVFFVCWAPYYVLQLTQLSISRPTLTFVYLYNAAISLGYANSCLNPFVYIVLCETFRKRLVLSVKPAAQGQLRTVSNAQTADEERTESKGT
measurement.protocol: Displacement of [125I][Phe13,Tyr19]-MCH from rat MCHR1 by scintillation counting analysis
measured.attribute: Ki (nM)
Kindly provide the numeric value in nM only, without the unit symbol.

Solved entries:
Prompt line: # get_value(readout='Ki', item= COc1ccc(-n2cnn3cc(-c4ccc(Cl)cc4)cc3c2=O)cc1OC )
Response line: 8

Prompt line: # get_value(readout='Ki', item= COc1cc(-n2cnn3nc(-c4ccc(Cl)cc4)cc3c2=O)ccc1OCCN1CCCC1 )
Response line: 0.5

***
Prompt line: # get_value(readout='Ki', item= COc1cc(-n2cnc3cc(-c4ccc(Cl)cc4)sc3c2=O)ccc1OCC(C)(C)O )
Response line: 7.2
